Reference source for all entries: paper PMC6105827

The compounds listed here are annotated with their pEC50.
Tested on: T. brucei bloodstream forms
Test: microbe, parasite or virus in culture
Details: Trypanosoma brucei, read-out: Mean EC50 ± SD, WT, absence of cation, CuCl2 experiment
pEC50: −log10 of the molar value.
Property label: pEC50

{"Compound": "COc1ccccc1-c1nc(-c2nc(C)n[nH]2)c(O)c2ncccc12", "Result value": 5.85}
{"Compound": "Cc1nnc(-c2nc(NCc3ccc(Cl)cc3)c3cccnc3c2O)[nH]1", "Result value": 6.52}
{"Compound": "CC(NC(=O)c1ncc2cccnc2c1O)c1ccc(F)cc1 (stereo not drawn)", "Result value": 6.10}
